# system.under.test: Human FRA on IGROV-1 human ovarian adenocarcinoma cells (human, UniProt P15328 25-234)
# Sequence (P15328 25-234 limits assumed): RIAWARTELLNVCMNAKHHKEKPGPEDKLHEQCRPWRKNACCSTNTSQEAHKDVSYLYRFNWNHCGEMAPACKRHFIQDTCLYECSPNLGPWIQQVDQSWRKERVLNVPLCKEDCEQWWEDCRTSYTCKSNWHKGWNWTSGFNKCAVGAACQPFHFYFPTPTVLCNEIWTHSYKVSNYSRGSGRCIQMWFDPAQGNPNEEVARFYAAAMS
# experimental.details: cell-based or functional assay
For each entry below, report its INTL % (150 min) value.
Kindly format the answer as number then unit.

MORAb-003 anti-FRA antibody, lot NB809-67 (low DO; harvested 13 days after initiation of culture) (antibody, human IgG1, kappa, V domains shown, N-linked neutral glycans at Asn299 in SEQ ID NO: 5) VH: EVQLVESGGGVVQPGRSLRLSCSASGFTFSGYGLSWVRQAPGKGLEWVAMISSGGSYTYYADSVKGRFAISRDNAKNTLFLQMDSLRPEDTGVYFCARHGDDPAWFAYWGQGTPVTVSS VL: DIQLTQSPSSLSASVGDRVTITCSVSSSISSNNLHWYQQKPGKAPKPWIYGTSNLASGVPSRFSGSGSGTDYTFTISSLQPEDIATYYCQQWSSYPYMYTFGQGTKVEIKR = 53%

API: the following record is the query input.
Input: Tell us which INTL % (150 min) value is on record for MORAb-003 anti-FRA antibody, lot NB810-10 (positive control; harvested 14 days after initiation of culture) (antibody, human IgG1, kappa, V domains shown, N-linked neutral glycans at Asn299 in SEQ ID NO: 5, also called Pos. ctl; positive control (round 1)) VH: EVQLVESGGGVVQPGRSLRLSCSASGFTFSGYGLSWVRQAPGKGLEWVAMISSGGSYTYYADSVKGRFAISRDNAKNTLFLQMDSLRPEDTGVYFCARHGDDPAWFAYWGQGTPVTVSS VL: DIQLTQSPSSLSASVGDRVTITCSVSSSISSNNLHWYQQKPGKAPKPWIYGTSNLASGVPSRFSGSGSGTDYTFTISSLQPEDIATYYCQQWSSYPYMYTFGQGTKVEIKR
Output: 56%
